Reference source for all entries: paper PMC6001238

Tested on: L1210, CEM and HeLa cell lines
protocolDetails: Cytostatic activity, average or summary over L1210, CEM and HeLa
Format: cell-based
recordedConditions: average of L1210, CEM and HeLa; read-out: Toxicity (IC50) Average
metricName: IC50 (µM)
Respond numerically; units are µM and should not be typed.

C#Cc1ccc(C=Cc2ccc(NC(=O)CNC(=O)C3NC(=O)C4NC(=O)C(NC(=O)C5NC(=O)C(CC(N)=O)NC(=O)C(NC(=O)C(CC(C)C)NC)C(O)c6ccc(c(Cl)c6)Oc6cc5cc(c6OC5OC(CO)C(O)C(O)C5OC5CC(C)(N)C(O)C(C)O5)Oc5ccc(cc5Cl)C4O)c4ccc(O)c(c4)-c4c(O)cc(O)cc43)cc2)cc1 (stereo not drawn) ... 7
CCCCCn1cc(-c2ccc(NC(=O)CNC(=O)C3NC(=O)C4NC(=O)C(NC(=O)C5NC(=O)C(CC(N)=O)NC(=O)C(NC(=O)C(CC(C)C)NC)C(O)c6ccc(c(Cl)c6)Oc6cc5cc(c6OC5OC(CO)C(O)C(O)C5OC5CC(C)(N)C(O)C(C)O5)Oc5ccc(cc5Cl)C4O)c4ccc(O)c(c4)-c4c(O)cc(O)cc43)cc2)nn1 (stereo not drawn) ... 136
CN[C@H](CC(C)C)C(=O)N[C@H]1C(=O)N[C@@H](CC(N)=O)C(=O)N[C@H]2C(=O)N[C@H]3C(=O)N[C@H](C(=O)N[C@H](C(=O)NCCNC(=O)CC(c4ccccc4)c4ccccc4)c4cc(O)cc(O)c4-c4cc3ccc4O)[C@H](O)c3ccc(c(Cl)c3)Oc3cc2cc(c3O[C@@H]2O[C@H](CO)[C@@H](O)[C@H](O)[C@H]2O[C@H]2C[C@](C)(N)[C@H](O)[C@H](C)O2)Oc2ccc(cc2Cl)[C@H]1O ... 199
CN[C@H](CC(C)C)C(=O)N[C@H]1C(=O)N[C@@H](CC(N)=O)C(=O)N[C@H]2C(=O)N[C@H]3C(=O)N[C@H](C(=O)N[C@H](C(=O)NCC(=O)Nc4ccc(-c5cn(-c6ccccc6)nn5)cc4)c4cc(O)cc(O)c4-c4cc3ccc4O)[C@H](O)c3ccc(c(Cl)c3)Oc3cc2cc(c3O[C@@H]2O[C@H](CO)[C@@H](O)[C@H](O)[C@H]2O[C@H]2C[C@](C)(N)[C@H](O)[C@H](C)O2)Oc2ccc(cc2Cl)[C@H]1O ... 92

Lab note: next compound to report on.
Looking up CNC(CC(C)C)C(=O)NC1C(=O)NC(CC(N)=O)C(=O)NC2C(=O)NC3C(=O)NC(C(=O)NC(C(=O)NCCCNC(=O)c4ccc(-c5ccc(-c6ccccc6)cc5)cc4)c4cc(O)cc(O)c4-c4cc3ccc4O)C(O)c3ccc(c(Cl)c3)Oc3cc2cc(c3OC2OC(CO)C(O)C(O)C2OC2CC(C)(N)C(O)C(C)O2)Oc2ccc(cc2Cl)C1O (stereo not drawn) , I see its IC50 listed as 7

----------
System: Clostridium difficile ATJ ribotype 014/20
protocolDetails: MIC, plate drop assay, C. difficile ATJ ribotype 014/20
Type: cell-based
recordedConditions: C. difficile ATJ ribotype 014/20
Examples of compounds with documented MIC-fold improvement vs. vancomycin follow.
Keep it simple and answer with nothing but the number.

Study these solved cases before continuing.
CNC(CC(C)C)C(=O)NC1C(=O)NC(CC(N)=O)C(=O)NC2C(=O)NC3C(=O)NC(C(=O)NC(C(=O)NCCCNC(=O)c4ccc(-c5ccc(F)cc5)cc4)c4cc(O)cc(O)c4-c4cc3ccc4O)C(O)c3ccc(c(Cl)c3)Oc3cc2cc(c3OC2OC(CO)C(O)C(O)C2OC2CC(C)(N)C(O)C(C)O2)Oc2ccc(cc2Cl)C1O (stereo not drawn) ... 22
CNC(CC(C)C)C(=O)NC1C(=O)NC(CC(N)=O)C(=O)NC2C(=O)NC3C(=O)NC(C(=O)NC(C(=O)NCCCNC(=O)c4cc5ccccc5o4)c4cc(O)cc(O)c4-c4cc3ccc4O)C(O)c3ccc(c(Cl)c3)Oc3cc2cc(c3OC2OC(CO)C(O)C(O)C2OC2CC(C)(N)C(O)C(C)O2)Oc2ccc(cc2Cl)C1O (stereo not drawn) ... 5.6
CNC(CC(C)C)C(=O)NC1C(=O)NC(CC(N)=O)C(=O)NC2C(=O)NC3C(=O)NC(C(=O)NC(C(=O)NCCCNC(=O)c4cc5ccccc5[nH]4)c4cc(O)cc(O)c4-c4cc3ccc4O)C(O)c3ccc(c(Cl)c3)Oc3cc2cc(c3OC2OC(CO)C(O)C(O)C2OC2CC(C)(N)C(O)C(C)O2)Oc2ccc(cc2Cl)C1O (stereo not drawn) ... 11

Looking up CN[C@H](CC(C)C)C(=O)N[C@H]1C(=O)N[C@@H](CC(N)=O)C(=O)N[C@H]2C(=O)N[C@H]3C(=O)N[C@H](C(=O)N[C@H](C(=O)O)c4cc(O)cc(O)c4-c4cc3ccc4O)[C@H](O)c3ccc(c(Cl)c3)Oc3cc2cc(c3O[C@@H]2O[C@H](CO)[C@@H](O)[C@H](O)[C@H]2O[C@H]2C[C@](C)(N)[C@H](O)[C@H](C)O2)Oc2ccc(cc2Cl)[C@H]1O , I see its MIC-fold improvement vs. vancomycin listed as 1

----------
System: E. faecalis VRE 53
protocolDetails: MIC, broth microdilution, vancomycin-resistant E. faecalis VRE 53 (VanA)
Type: cell-based, Enterococcus faecalis
recordedConditions: Enterococcus faecalis VRE 53 (vancomycin-resistant); read-out: MIC
metricName: MIC (µM)
Respond numerically; units are µM and should not be typed.

Study these solved cases before continuing.
CN[C@H](CC(C)C)C(=O)N[C@H]1C(=O)N[C@@H](CC(N)=O)C(=O)N[C@H]2C(=O)N[C@H]3C(=O)N[C@H](C(=O)N[C@H](C(=O)NCC(=O)Nc4ccc(C)cc4)c4cc(O)cc(O)c4-c4cc3ccc4O)[C@H](O)c3ccc(c(Cl)c3)Oc3cc2cc(c3O[C@@H]2O[C@H](CO)[C@@H](O)[C@H](O)[C@H]2O[C@H]2C[C@](C)(N)[C@H](O)[C@H](C)O2)Oc2ccc(cc2Cl)[C@H]1O ... 6.25
CN[C@H](CC(C)C)C(=O)N[C@H]1C(=O)N[C@@H](CC(N)=O)C(=O)N[C@H]2C(=O)N[C@H]3C(=O)N[C@H](C(=O)N[C@H](C(=O)NCCNC(=O)/C=C/c4ccc(NS(=O)(=O)c5ccc(C(C)C)cc5)cc4)c4cc(O)cc(O)c4-c4cc3ccc4O)[C@H](O)c3ccc(c(Cl)c3)Oc3cc2cc(c3O[C@@H]2O[C@H](CO)[C@@H](O)[C@H](O)[C@H]2O[C@H]2C[C@](C)(N)[C@H](O)[C@H](C)O2)Oc2ccc(cc2Cl)[C@H]1O ... 6.25

Lab note: next compound to report on.
Looking up CNC(CC(C)C)C(=O)NC1C(=O)NC(CC(N)=O)C(=O)NC2C(=O)NC3C(=O)NC(C(=O)NC(C(=O)NCCCNC(=O)c4ccc5cc(NS(=O)(=O)c6ccc(C)cc6)ccc5c4)c4cc(O)cc(O)c4-c4cc3ccc4O)C(O)c3ccc(c(Cl)c3)Oc3cc2cc(c3OC2OC(CO)C(O)C(O)C2OC2CC(C)(N)C(O)C(C)O2)Oc2ccc(cc2Cl)C1O (stereo not drawn) , I see its MIC listed as 25

----------
Examples of compounds with documented pIC50 follow.
System: L1210, CEM and HeLa cell lines
protocolDetails: Cytostatic activity, average or summary over L1210, CEM and HeLa
Format: cell-based
recordedConditions: average of L1210, CEM and HeLa; read-out: Toxicity (IC50) Average
Interpret pIC50 as the negative base-10 log of the concentration measured in mol/L.

CN[C@H](CC(C)C)C(=O)N[C@H]1C(=O)N[C@@H](CC(N)=O)C(=O)N[C@H]2C(=O)N[C@H]3C(=O)N[C@H](C(=O)N[C@H](C(=O)NCCNC(=O)/C=C/c4ccc(NS(=O)(=O)c5ccc(Cl)cc5Cl)cc4)c4cc(O)cc(O)c4-c4cc3ccc4O)[C@H](O)c3ccc(c(Cl)c3)Oc3cc2cc(c3O[C@@H]2O[C@H](CO)[C@@H](O)[C@H](O)[C@H]2O[C@H]2C[C@](C)(N)[C@H](O)[C@H](C)O2)Oc2ccc(cc2Cl)[C@H]1O ... 3.73
CCCCC[N+](C)(C)CCCNC(=O)c1ccc(NC(=O)CNC(=O)C2NC(=O)C3NC(=O)C(NC(=O)C4NC(=O)C(CC(N)=O)NC(=O)C(NC(=O)C(CC(C)C)NC)C(O)c5ccc(c(Cl)c5)Oc5cc4cc(c5OC4OC(CO)C(O)C(O)C4OC4CC(C)(N)C(O)C(C)O4)Oc4ccc(cc4Cl)C3O)c3ccc(O)c(c3)-c3c(O)cc(O)cc32)cc1 (stereo not drawn) ... 3.62

Looking up CN[C@H](CC(C)C)C(=O)N[C@H]1C(=O)N[C@@H](CC(N)=O)C(=O)N[C@H]2C(=O)N[C@H]3C(=O)N[C@H](C(=O)N[C@H](C(=O)NCC(=O)Nc4ccc5cc6ccccc6cc5c4)c4cc(O)cc(O)c4-c4cc3ccc4O)[C@H](O)c3ccc(c(Cl)c3)Oc3cc2cc(c3O[C@@H]2O[C@H](CO)[C@@H](O)[C@H](O)[C@H]2O[C@H]2C[C@](C)(N)[C@H](O)[C@H](C)O2)Oc2ccc(cc2Cl)[C@H]1O , I see its pIC50 listed as 4.02
